Biological target: Jak2 (UniProt O60674)
Sequence (O60674 whole entry, looked up): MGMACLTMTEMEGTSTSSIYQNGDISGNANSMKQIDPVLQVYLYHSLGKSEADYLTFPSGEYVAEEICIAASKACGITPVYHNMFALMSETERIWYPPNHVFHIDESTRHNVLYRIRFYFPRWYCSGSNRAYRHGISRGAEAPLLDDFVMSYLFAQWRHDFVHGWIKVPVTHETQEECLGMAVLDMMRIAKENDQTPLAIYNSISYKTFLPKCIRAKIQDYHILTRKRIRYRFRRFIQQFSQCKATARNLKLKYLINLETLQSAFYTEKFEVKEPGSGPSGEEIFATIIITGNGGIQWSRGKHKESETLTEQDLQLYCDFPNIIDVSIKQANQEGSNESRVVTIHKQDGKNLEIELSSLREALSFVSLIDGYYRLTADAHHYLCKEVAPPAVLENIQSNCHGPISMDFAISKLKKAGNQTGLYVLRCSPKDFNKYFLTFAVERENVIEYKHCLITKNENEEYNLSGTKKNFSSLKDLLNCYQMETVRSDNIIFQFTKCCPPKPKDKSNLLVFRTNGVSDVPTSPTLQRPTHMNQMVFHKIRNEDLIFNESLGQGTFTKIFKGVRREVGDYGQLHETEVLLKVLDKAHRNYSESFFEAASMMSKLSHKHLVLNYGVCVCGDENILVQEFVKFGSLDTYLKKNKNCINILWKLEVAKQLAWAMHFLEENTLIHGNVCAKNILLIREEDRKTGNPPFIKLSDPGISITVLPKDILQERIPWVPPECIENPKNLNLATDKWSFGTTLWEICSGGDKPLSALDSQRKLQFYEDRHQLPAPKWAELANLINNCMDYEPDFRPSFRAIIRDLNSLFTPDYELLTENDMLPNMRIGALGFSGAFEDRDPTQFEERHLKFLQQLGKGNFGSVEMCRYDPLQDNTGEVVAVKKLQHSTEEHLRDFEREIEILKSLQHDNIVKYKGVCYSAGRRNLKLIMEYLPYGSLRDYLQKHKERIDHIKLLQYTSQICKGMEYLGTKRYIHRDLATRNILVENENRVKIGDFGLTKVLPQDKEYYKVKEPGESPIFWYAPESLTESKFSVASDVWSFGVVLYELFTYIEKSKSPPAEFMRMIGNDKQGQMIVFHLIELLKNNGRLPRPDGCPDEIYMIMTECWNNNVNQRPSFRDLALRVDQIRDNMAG
Assay: phosphorylation enrichment, bacterial display (enrichment ratio); higher = better substrate or ligand; peptides without Tyr show the background;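 further: 11-residue human phosphosite peptides and single-mutation variants displayed on the E. coli surface, counted by deep sequencing, each peptide's frequency after selection divided by its frequency in the unselected input library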;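 further: frequency after pTyr selection over input frequency; kinase dosed for 20-30% of maximal phosphorylation in three min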
reported_metric: phosphorylation enrichment

[[record]]
sequence_string = "TLKVGYKEKQR [EPHA3_Y659_T660K]"
reported_metric = "phosphorylation enrichment"
observed = 0.812

[[record]]
sequence_string = "TLLSAYQIPRT [GAB2_Y324_P320L]"
reported_metric = "phosphorylation enrichment"
observed = 0.68

[[record]]
sequence_string = "SKLTIYDARPS [MTM1_Y277]"
reported_metric = "phosphorylation enrichment"
observed = 0.655

[[record]]
sequence_string = "HFGNNYTDVLQ [MACC1_Y803_R804T_YF]"
reported_metric = "phosphorylation enrichment"
observed = 0.578

[[record]]
sequence_string = "GGGGSYNDFGN [HNRNPA1_Y312]"
reported_metric = "phosphorylation enrichment"
observed = 0.579

[[record]]
sequence_string = "LHAAAYWNALA [UQCRC2_Y182_R183W]"
reported_metric = "phosphorylation enrichment"
observed = 0.926

[[record]]
sequence_string = "GCCSWYRGWAP [TIMP3_Y195_Y191C]"
reported_metric = "phosphorylation enrichment"
observed = 0.705

[[record]]
sequence_string = "DRIVNYSRASV [ATP7A_Y1459_I1464V]"
reported_metric = "phosphorylation enrichment"
observed = 0.732

[[record]]
sequence_string = "LEISPYMLSGR [LRRK2_Y1718]"
reported_metric = "phosphorylation enrichment"
observed = 0.64

[[record]]
sequence_string = "PNATLYKMTSI [SERPINA7_Y40_S43T]"
reported_metric = "phosphorylation enrichment"
observed = 1.16

[[record]]
sequence_string = "TLNHQYDFTFD [CSNK1A1_Y292_YF]"
reported_metric = "phosphorylation enrichment"
observed = 0.989

[[record]]
sequence_string = "QQLQGYVPSNY [FRK_Y99_I100V]"
reported_metric = "phosphorylation enrichment"
observed = 0.822

[[record]]
sequence_string = "PVDGEYFTLQI [TP53_Y327_L323V]"
reported_metric = "phosphorylation enrichment"
observed = 3.14

[[record]]
sequence_string = "FRAPGYREVVI [TNS2_Y673_YF]"
reported_metric = "phosphorylation enrichment"
observed = 0.55

